# credit: patent US20090208538A1

test.system: HLA-A*2402 (human)
assay.info: iTopia affinity;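 further: peptide binding to HLA-A*2402 measured in iTopia kit format across eight serial peptide dilutions, ED50 derived from the resulting titration curve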
Some binders, each annotated with its measured ED50.
measured.property: ED50

LYDLRQHFV [cdr2 164-172 LYDLRQHFV]: 1.6 µM
VPDSLYVPF [cdr2 275-283 VPDSLYVPF]: 9.2 µM
VYDHVFAEK [cdr2 172-180 VYDHVFAEK]: 6.2 µM
KQRGISLLH [cdr2 339-347 KQRGISLLH]: 6.9 µM
